measuredTarget: T1, Recombinant MBP-mutCALR Type 1 fusion protein (human)
T1 construct: custom made at Cepter; also called recombinant mutCALR protein
methodDescription: SPR, IgG captured, 1:1 fit, Exp. 2
This listing pairs binders with measured Kd.
State the answer as a number, implicitly in nM.

Some solved entries appear below for comparison.
INSERT INTO measurements (binder, datavalue) VALUES
  ('anti-mutCALR antibody clone 64 (antibody, human IgG1, lambda, N297A, V domains shown, human IgG1 N297A variant of clone 6) VH: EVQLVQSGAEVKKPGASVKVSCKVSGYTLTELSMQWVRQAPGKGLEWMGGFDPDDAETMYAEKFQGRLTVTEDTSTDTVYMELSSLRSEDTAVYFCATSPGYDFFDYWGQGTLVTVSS VL: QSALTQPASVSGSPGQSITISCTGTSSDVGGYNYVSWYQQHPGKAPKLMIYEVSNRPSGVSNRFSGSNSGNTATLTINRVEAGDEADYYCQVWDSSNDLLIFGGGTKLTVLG', 0.638),
  ('anti-mutCALR antibody clone 133 (antibody, human IgG1, lambda, N297A, V domains shown, human IgG1 N297A variant of clone 15) VH: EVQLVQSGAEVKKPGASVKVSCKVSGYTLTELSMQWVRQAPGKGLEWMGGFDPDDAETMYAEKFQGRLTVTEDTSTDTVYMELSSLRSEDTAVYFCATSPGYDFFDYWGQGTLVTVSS VL: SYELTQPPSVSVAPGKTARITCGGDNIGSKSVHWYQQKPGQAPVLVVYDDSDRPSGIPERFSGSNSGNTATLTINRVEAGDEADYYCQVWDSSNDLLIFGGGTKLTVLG', 0.826),
  ('anti-mutCALR antibody clone 180 (antibody, human IgG1, lambda, N297A, V domains shown, human IgG1 N297A variant of clone 17) VH: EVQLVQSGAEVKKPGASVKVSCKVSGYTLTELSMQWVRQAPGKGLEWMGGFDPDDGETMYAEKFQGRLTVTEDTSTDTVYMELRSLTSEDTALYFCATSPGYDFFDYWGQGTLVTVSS VL: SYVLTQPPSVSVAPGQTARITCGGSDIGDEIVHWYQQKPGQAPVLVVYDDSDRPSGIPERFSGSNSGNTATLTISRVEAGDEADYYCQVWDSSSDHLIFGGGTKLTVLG', 0.198),
  ('anti-mutCALR antibody clone 63 (antibody, human IgG1, lambda, N297A, V domains shown, human IgG1 N297A variant of clone 6) VH: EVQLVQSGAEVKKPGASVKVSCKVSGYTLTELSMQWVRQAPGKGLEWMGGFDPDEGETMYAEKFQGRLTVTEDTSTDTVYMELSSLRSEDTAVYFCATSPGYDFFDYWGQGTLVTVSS VL: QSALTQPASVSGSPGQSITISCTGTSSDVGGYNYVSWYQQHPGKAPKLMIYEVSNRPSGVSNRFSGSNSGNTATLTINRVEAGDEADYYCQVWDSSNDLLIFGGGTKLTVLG', 0.244);

Note: attention shifts to another entry.
get_value(item= anti-mutCALR antibody clone 129 (antibody, human IgG1, lambda, N297A, V domains shown, human IgG1 N297A variant of clone 15) VH: EVQLVQSGAEVKKPGASVKVSCKVSGYTLTELSMQWVRQAPGKGLEWMGGFDPDDGETMYAEKFQGRLTVTEDTSTDTVYMELSSLRSEDTAVYFCATSPGYDFFDYWGQGTLVTVSS VL: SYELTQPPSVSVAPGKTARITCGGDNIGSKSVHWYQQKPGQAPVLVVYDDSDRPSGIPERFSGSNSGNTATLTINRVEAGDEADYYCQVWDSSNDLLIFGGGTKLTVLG , readout=Kd) returns 0.53
